# target-under-test: T1, EsCas13d, nuclease-dead (Eubacterium siraeum, UniProt B0MS50, R295A;H300A;R849A;H854A)
# T1 sequence: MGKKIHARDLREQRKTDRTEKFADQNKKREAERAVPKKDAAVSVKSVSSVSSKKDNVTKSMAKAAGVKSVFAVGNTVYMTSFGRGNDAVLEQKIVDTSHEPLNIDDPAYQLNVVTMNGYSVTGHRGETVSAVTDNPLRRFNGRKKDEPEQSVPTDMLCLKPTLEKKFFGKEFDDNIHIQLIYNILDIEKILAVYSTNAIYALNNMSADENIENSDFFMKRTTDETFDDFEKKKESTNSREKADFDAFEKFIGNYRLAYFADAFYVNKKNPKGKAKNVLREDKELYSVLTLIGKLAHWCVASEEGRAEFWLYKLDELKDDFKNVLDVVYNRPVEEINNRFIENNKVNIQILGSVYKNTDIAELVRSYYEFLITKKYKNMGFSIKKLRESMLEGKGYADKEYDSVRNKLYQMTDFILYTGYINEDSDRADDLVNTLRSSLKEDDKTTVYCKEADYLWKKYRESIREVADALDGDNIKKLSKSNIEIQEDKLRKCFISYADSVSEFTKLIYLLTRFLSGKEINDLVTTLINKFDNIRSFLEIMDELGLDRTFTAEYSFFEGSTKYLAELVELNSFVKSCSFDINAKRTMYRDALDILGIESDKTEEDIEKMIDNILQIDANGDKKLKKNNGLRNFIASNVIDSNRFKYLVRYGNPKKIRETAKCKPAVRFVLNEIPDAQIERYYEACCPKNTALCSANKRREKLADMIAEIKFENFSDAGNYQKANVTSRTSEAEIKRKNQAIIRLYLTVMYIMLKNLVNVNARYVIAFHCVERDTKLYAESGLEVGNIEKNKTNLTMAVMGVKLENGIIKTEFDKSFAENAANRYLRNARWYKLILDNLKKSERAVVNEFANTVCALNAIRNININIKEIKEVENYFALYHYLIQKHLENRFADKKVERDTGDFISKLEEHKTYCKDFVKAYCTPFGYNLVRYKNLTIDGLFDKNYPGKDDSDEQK
# assay-info: crRNA (strand 1, pre-loaded); Mg2+; 40 mM Tris-HCl pH 7.5, 150 mM NaCl, 6 mM MgCl2, 1 mM DTT, 0.1% Tween-20, 0.2 mg/ml BSA; 25 C; 10 min per concentration, then washed
# condition-details: tags: His6-TwinStrep-SUMO cleaved; N-terminal SNAP kept (SNAP-Surface 488); label: 3' end held by stalled T7 RNA polymerase
test-readout: pKd
Interpret pKd as the negative base-10 log of the concentration measured in mol/L.

Known results for binders:
Query: Value lookup for pKd; key = target 1 insU 3' of 13,insC 3' of 1 (mixed) RNA 1: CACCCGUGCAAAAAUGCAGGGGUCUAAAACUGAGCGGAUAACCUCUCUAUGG RNA 2: GGGAAUGGAUCCACAUCUACGAAUUCGUACCAUAGAGAGUGUUAUCCGCUCACCCGAGAUCGGAAGAGCACACGU
Result: 7.68

Query: Value lookup for pKd; key = target 1 MT 5'PFS GCU 3'PFS CUG (mixed) RNA 1: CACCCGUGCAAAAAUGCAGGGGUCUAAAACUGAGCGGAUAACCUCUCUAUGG RNA 2: GGGAAUGGAUCCACAUCUACGAAUUCGCUCCAUAGAGAGGUUAUCCGCUCACUGAGAUCGGAAGAGCACACGU
Result: 7.04

***
Query: Value lookup for pKd; key = target 1 A18U,U19C (mixed) RNA 1: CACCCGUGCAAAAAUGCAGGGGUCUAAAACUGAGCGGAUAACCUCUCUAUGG RNA 2: GGGAAUGGAUCCACAUCUACGAAUUCGUACCACUGAGAGGUUAUCCGCUCACCGAGAUCGGAAGAGCACACGU
Result: 7.19
